- assay_target: 11-beta-hydroxysteroid dehydrogenase 1 (Mus musculus)
- Sequence (P50172 whole entry): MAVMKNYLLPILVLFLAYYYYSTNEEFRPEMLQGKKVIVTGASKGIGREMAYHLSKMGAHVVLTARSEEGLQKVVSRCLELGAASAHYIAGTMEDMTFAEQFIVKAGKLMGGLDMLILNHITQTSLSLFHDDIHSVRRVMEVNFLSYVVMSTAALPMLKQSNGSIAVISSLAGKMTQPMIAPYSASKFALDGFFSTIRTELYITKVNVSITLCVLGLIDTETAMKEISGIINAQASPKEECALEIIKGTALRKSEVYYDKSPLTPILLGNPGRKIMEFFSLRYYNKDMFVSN
- method_notes: Inhibition of C57BL/6 mouse 11betaHSD1 in presence of human serum
pIC50: −log10 of the molar value.
measurement_name: pIC50

compound	assay_target	test_result
C[C@@H]1CN(c2ccc(F)cc2C(F)(F)F)CCN1S(=O)(=O)c1cccc(N2CCCC2C(=O)O)c1 (stereo partly drawn)	11-beta-hydroxysteroid dehydrogenase 1 (Mus musculus)	7.49
C[C@@H]1CN(c2ccc(F)cc2C(F)(F)F)CCN1S(=O)(=O)c1cccc(N2CCCC2)c1	11-beta-hydroxysteroid dehydrogenase 1 (Mus musculus)	7.25

1: CCN1CCN(c2cccc(S(=O)(=O)N3CCN(c4ccc(F)cc4C(F)(F)F)C[C@H]3C)c2)CC1
2: C[C@@H]1CN(c2ccc(F)cc2C(F)(F)F)CCN1S(=O)(=O)c1cccc(N2CCC(C(N)=O)C2)c1 (stereo partly drawn)
3: C[C@@H]1CN(c2ccc(F)cc2C(F)(F)F)CCN1S(=O)(=O)c1cccc(N2CCNCC2)c1
4: C[C@@H]1CN(c2ccc(F)cc2C(F)(F)F)CCN1S(=O)(=O)c1cccc(N2CCN(C)CC2)c1
5: C[C@@H]1CN(c2ccc(F)cc2C(F)(F)F)CCN1S(=O)(=O)c1cccc(-n2cccn2)c1
Arrange by pIC50, high to low. Please, when replying, give the labels in the order that was requested.
2, 4, 1, 5, 3
(2: 7.85, 4: 7.55, 1: 7.35, 5: 7.00, 3: 6.72)

a: COC(=O)C1CCN(c2cccc(S(=O)(=O)N3CCN(c4ccc(F)cc4C(F)(F)F)C[C@H]3C)c2)C1 (stereo partly drawn)
b: CC(C)N1CCN(c2cccc(S(=O)(=O)N3CCN(c4ccc(F)cc4C(F)(F)F)C[C@H]3C)c2)CC1
Between a and b , which one has the lower reported pIC50 value? // respond with label for picked entry
b
(b: 6.60, a: 7.26)

----------
- method_notes: Oral bioavailability in mouse at 30 mg/kg
- Type: ADME, organism-based
- recorded_conditions: in vivo
measurement_name: bioavailability (%)

# annotated cases, reported bioavailability shown
compound	bioavailability [%]
C[C@@H]1CN(c2ccc(F)cc2C(F)(F)F)CCN1S(=O)(=O)c1cccc(OC(C)(C)C(=O)O)c1	100
C[C@@H]1CN(c2ccc(F)cc2C(F)(F)F)CCN1S(=O)(=O)c1cccc(N2CCN(C)CC2)c1	79

a: C[C@@H]1CN(c2ccc(F)cc2C(F)(F)F)CCN1S(=O)(=O)c1cccc(N2CCC(C(=O)O)C2)c1 (stereo not given in full)
b: C[C@@H]1CN(c2ccc(F)cc2C(F)(F)F)CCN1S(=O)(=O)c1cccc(N2CCC(O)C2)c1 (stereo not given in full)
c: C[C@@H]1CN(c2ccc(F)cc2C(F)(F)F)CCN1S(=O)(=O)c1cccc(-n2cncn2)c1
Arrange by bioavailability, high to low. Please, when replying, give the labels in the order that was requested.
a, c, b

----------
- method_notes: AUC in Sprague-Dawley rat at 30 mg/kg, po
- Assay type: ADME, organism-based
- Parameters: dose 30 mg/kg, route oral
- recorded_conditions: plasma
measurement_name: AUC (ng·h/mL)

# annotated cases, reported AUC shown
molecule	AUC, ng·h/mL
C[C@@H]1CN(c2ccc(F)cc2C(F)(F)F)CCN1S(=O)(=O)c1cccc(N2CCN(C)CC2)c1	2280
C[C@@H]1CN(c2ccc(F)cc2C(F)(F)F)CCN1S(=O)(=O)c1cccc(-n2cncn2)c1	1040

1: C[C@@H]1CN(c2ccc(F)cc2C(F)(F)F)CCN1S(=O)(=O)c1cccc(N2CCC(O)C2)c1 (some centres undefined)
2: C[C@@H]1CN(c2ccc(F)cc2C(F)(F)F)CCN1S(=O)(=O)c1cccc(OC(C)(C)C(=O)O)c1
Between 1 and 2 , which one has the lower reported AUC value? // respond with label for picked entry
1
(1: 1040 ng·h/mL, 2: 51100 ng·h/mL)

----------
- method_notes: Metabolic stability assessed as half life in mouse liver microsomes
measurement_name: half-life (min)

# annotated cases, reported half-life shown
compound	unit_tag	test_result
O=S(=O)(c1ccc(Cl)c(Cl)c1)N1CCN(c2ccccc2C(F)(F)F)CC1	min	3
O=C1CN(S(=O)(=O)c2ccc(Cl)c(Cl)c2)CCN1c1ncccc1C(F)(F)F	min	30

1: C[C@@H]1CN(c2ccc(F)cc2C(F)(F)F)CCN1S(=O)(=O)c1cccc(N2CCN(C)CC2)c1
2: O=S(=O)(c1ccc(Cl)c(Cl)c1)N1CCN(c2ccc(F)cc2C(F)(F)F)CC1
Identify the entry with the larger half-life. Options: 1 and 2 // respond with label for picked entry
1
(1: 15 min, 2: 8 min)

I: O=C1CN(c2ncccc2C(F)(F)F)CCN1S(=O)(=O)c1ccc(Cl)c(Cl)c1
II: C[C@@H]1CN(c2ccccc2C(F)(F)F)CCN1S(=O)(=O)c1ccc(Cl)c(Cl)c1
III: C[C@@H]1CN(c2ncccc2Cl)[C@@H](C)CN1S(=O)(=O)c1ccc(Cl)c(Cl)c1 (relative stereo)
Arrange by half-life, high to low. Please, when replying, give the labels in the order that was requested.
I, II, III

----------
- method_notes: Metabolic stability assessed as half life in human liver microsomes
measurement_name: half-life (min)

# annotated cases, reported half-life shown
compound	half-life, min
C[C@@H]1CN(c2ccccc2C(F)(F)F)CCN1S(=O)(=O)c1ccc(Cl)c(Cl)c1	5
C[C@@H]1CN(c2ncccc2Cl)[C@@H](C)CN1S(=O)(=O)c1ccc(Cl)c(Cl)c1 (relative stereo)	3
O=S(=O)(c1ccc(Cl)c(Cl)c1)N1CCN(c2ncccc2C(F)(F)F)CC1	5

P: O=S(=O)(c1ccc(Cl)c(Cl)c1)N1CCN(c2ccccc2C(F)(F)F)CC1
Q: O=S(=O)(c1ccc(Cl)c(Cl)c1)N1CCN(c2ccc(F)cc2C(F)(F)F)CC1
R: O=C1CN(c2ncccc2C(F)(F)F)CCN1S(=O)(=O)c1ccc(Cl)c(Cl)c1
S: O=C1CN(S(=O)(=O)c2ccc(Cl)c(Cl)c2)CCN1c1ncccc1C(F)(F)F
T: C[C@@H]1CN(c2ncccc2Cl)C[C@H](C)N1S(=O)(=O)c1ccc(Cl)c(Cl)c1
Hey, can you sort those compounds up there by half-life, smallest first? Please, when replying, give the labels in the order that was requested.
R, P, T, Q, S

----------
Consider compounds characterized by their pIC50 with UniProt P28845.
Sequence (P28845 whole entry): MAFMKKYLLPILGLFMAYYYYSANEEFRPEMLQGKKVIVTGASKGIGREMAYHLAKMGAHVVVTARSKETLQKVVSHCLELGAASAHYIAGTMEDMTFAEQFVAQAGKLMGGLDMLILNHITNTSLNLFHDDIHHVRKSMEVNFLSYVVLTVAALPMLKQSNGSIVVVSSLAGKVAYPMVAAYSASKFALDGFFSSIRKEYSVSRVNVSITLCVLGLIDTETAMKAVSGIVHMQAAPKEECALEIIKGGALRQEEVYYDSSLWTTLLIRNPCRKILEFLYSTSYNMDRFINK
pIC50: −log10 of the molar value.
measurement_name: pIC50

compound	assay_target	pIC50
C[C@@H]1CN(c2ccc(F)cc2C(F)(F)F)CCN1S(=O)(=O)c1cccc(-n2ccnc2)c1	UniProt P28845	7.13
C[C@@H]1CN(c2ccc(F)cc2C(F)(F)F)CCN1S(=O)(=O)c1cccc(N2CCCC2C(=O)O)c1 (stereo partly specified)	UniProt P28845	7.16
O=S(=O)(c1ccc(Cl)c(Cl)c1)N1CCN(c2ncccc2C(F)(F)F)CC1	UniProt P28845	7.21

P: O=C1CN(S(=O)(=O)c2ccc(Cl)c(Cl)c2)CCN1c1ncccc1C(F)(F)F
Q: C[C@@H]1CN(c2ccc(F)cc2C(F)(F)F)CCN1S(=O)(=O)c1cccc(N2CCC(O)C2)c1 (stereo partly specified)
Identify the entry with the larger pIC50. Options: P and Q // respond with label for picked entry
Q
(Q: 8.00, P: 5.00)

P: COC(=O)N1CCN(c2cccc(S(=O)(=O)N3CCN(c4ccc(F)cc4C(F)(F)F)C[C@H]3C)c2)CC1
Q: C[C@@H]1CN(c2ccc(F)cc2C(F)(F)F)CCN1S(=O)(=O)c1cccc(N2CCC(C(N)=O)C2)c1 (stereo partly specified)
R: C[C@@H]1CN(c2ccc(F)cc2C(F)(F)F)CCN1S(=O)(=O)c1cccc(N2CC[C@@H](O)C2)c1
S: C[C@@H]1CN(c2ncccc2Cl)[C@@H](C)CN1S(=O)(=O)c1ccc(Cl)c(Cl)c1 (relative stereo)
Arrange by pIC50, high to low. Please, when replying, give the labels in the order that was requested.
R, Q, P, S
(R: 8.00, Q: 7.49, P: 6.48, S: 5.80)

----------
- assay_target: 11-beta-hydroxysteroid dehydrogenase 1 (Mus musculus)
- method_notes: Inhibition of mouse 11betaHSD1 expressed in CHO cells by cell based assay
pIC50: −log10 of the molar value.
measurement_name: pIC50

# annotated cases, reported pIC50 shown
molecule	test_result
C[C@@H]1CN(c2ccc(F)cc2C(F)(F)F)CCN1S(=O)(=O)c1cccc(N2CCNCC2)c1	6.80
COC(=O)N1CCN(c2cccc(S(=O)(=O)N3CCN(c4ccc(F)cc4C(F)(F)F)C[C@H]3C)c2)CC1	7.96
C[C@@H]1CN(c2ccc(F)cc2C(F)(F)F)CCN1S(=O)(=O)c1cccc(N2CCCC2C(=O)O)c1 (stereo not given in full)	7.57

A: C[C@@H]1CN(c2ccc(F)cc2C(F)(F)F)CCN1S(=O)(=O)c1cccc(-n2cnnc2)c1
B: C[C@@H]1CN(c2ccccc2C(F)(F)F)CCN1S(=O)(=O)c1ccc(Cl)c(Cl)c1
Identify the entry with the larger pIC50. Options: A and B // respond with label for picked entry
B
(B: 8.00, A: 6.64)
